Molecular target: F508delCFTR (Homo sapiens, UniProt P13569, DEL508-508)
Construct: expressed in transfected cells; host or cells: CFBE41o- human lung-derived epithelial cells (CFBE41o-F508delCFTR-HRP), doxycycline-inducible
Sequence (P13569 with tags, fused parts or gaps DEL508-508): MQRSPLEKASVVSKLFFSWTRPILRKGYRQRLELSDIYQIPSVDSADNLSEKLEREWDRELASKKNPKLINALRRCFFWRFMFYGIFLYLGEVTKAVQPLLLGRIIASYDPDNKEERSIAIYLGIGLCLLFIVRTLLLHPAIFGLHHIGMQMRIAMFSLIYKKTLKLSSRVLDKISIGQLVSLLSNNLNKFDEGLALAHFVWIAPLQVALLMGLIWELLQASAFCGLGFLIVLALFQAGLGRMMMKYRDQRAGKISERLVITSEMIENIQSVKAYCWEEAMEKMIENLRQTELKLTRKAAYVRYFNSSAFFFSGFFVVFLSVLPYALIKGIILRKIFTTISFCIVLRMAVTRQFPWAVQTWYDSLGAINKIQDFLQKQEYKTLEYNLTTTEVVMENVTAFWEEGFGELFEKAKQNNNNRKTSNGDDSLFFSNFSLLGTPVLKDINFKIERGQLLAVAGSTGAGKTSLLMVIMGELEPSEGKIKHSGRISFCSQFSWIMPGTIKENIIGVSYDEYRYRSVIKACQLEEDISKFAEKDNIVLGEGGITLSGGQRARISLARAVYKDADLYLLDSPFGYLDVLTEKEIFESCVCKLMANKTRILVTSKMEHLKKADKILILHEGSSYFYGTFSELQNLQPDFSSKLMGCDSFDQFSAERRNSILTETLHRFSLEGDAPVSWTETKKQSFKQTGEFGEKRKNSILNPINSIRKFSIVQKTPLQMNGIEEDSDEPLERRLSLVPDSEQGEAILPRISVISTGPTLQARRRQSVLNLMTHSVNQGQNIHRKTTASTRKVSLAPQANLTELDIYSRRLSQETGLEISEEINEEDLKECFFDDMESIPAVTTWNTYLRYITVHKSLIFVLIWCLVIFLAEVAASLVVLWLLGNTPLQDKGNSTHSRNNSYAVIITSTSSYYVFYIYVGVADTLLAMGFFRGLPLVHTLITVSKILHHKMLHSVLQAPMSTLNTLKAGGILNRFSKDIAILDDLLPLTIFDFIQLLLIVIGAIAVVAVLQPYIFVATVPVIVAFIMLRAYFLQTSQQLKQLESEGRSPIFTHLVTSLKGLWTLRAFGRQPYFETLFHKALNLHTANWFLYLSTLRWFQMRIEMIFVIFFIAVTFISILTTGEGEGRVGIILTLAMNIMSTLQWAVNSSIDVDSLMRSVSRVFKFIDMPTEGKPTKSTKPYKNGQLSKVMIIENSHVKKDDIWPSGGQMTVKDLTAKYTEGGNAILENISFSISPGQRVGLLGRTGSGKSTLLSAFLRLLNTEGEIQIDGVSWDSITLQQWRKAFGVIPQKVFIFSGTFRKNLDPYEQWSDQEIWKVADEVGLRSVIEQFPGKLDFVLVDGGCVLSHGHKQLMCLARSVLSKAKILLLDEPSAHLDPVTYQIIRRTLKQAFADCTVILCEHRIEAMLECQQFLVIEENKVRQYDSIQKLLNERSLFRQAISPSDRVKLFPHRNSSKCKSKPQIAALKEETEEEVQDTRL
Assay: Cell Surface Expression-Horse Radish Peroxidase (CSE-HRP) assay, test compound without co-corrector
Format: cell-based
Conditions: test compound without co-corrector
pEC50: −log10 of the molar value.
endpoint.name: pEC50

Reference set (3 entries):
compound	target.entity	pEC50
O=C(NS(=O)(=O)c1ccc(Cl)cc1)C1CCc2c(Cl)cccc21 (stereo not shown)	F508delCFTR (Homo sapiens, UniProt P13569, DEL508-508)	≤ 5.00
COc1ccc(Br)c2c1CCCC2C(=O)NS(=O)(=O)c1cccc2ccccc12 (stereo not shown)	F508delCFTR (Homo sapiens, UniProt P13569, DEL508-508)	> 5.52
COC(=O)c1cccc2c(S(=O)(=O)NC(=O)C3CCc4c(Br)ccc(OC)c43)cccc12 (stereo not shown)	F508delCFTR (Homo sapiens, UniProt P13569, DEL508-508)	5.00 to 5.52

Measured pEC50, COCCCS(=O)(=O)NC(=O)C1CCc2c(OC)cccc21 (stereo not shown) : ≤ 5.00

Measured pEC50, O=C(NS(=O)(=O)c1cccc2ccccc12)C1(Cc2ccc(Cl)nc2)CCc2c(Cl)cccc21 (stereo not shown) : 5.00 to 5.52

Measured pEC50, CCC1(C(=O)NS(=O)(=O)c2cn(C)c3ccccc23)CCc2c(Cl)cccc21 (stereo not shown) : 5.00 to 5.52

Measured pEC50, COc1ccc(Cl)c2c1C(C(=O)NS(=O)(=O)c1cccc3ccccc13)CCC2 (stereo not shown) : > 5.52

Measured pEC50, O=C(NS(=O)(=O)c1cccc2ccccc12)C1(CO)CCc2c(Cl)cccc21 (stereo not shown) : 5.00 to 5.52

Measured pEC50, CCC1(C(=O)NS(=O)(=O)c2cccc(Cl)c2F)CCc2c(Cl)cccc21 (stereo not shown) : ≤ 5.00

Measured pEC50, COc1ncc(Br)c2c1[C@@H](C(=O)NS(=O)(=O)c1cccc3ccccc13)CCC2 : 5.00 to 5.52

Measured pEC50, COc1cccc2c1CCC2C(=O)NS(=O)(=O)c1ccc(O)nc1 (stereo not shown) : ≤ 5.00

Measured pEC50, COc1ccc(C2CCC2)c2c1C(C(=O)NS(=O)(=O)c1cccc3c1NCCC3)CC2 (stereo not shown) : 5.00 to 5.52

Measured pEC50, CCC1(C(=O)NS(=O)(=O)c2cc(C)ccc2C(C)C)CCc2c(Cl)cccc21 (stereo not shown) : > 5.52

Measured pEC50, COc1ccc(C)c2c1C(C(=O)NS(=O)(=O)c1cccc3ccccc13)CC2 (stereo not shown) : > 5.52

* * *

Target: F508delCFTR (Homo sapiens, UniProt P13569, DEL508-508)
Construct: expressed in transfected cells; host or cells: CFBE41o- human lung-derived epithelial cells (CFBE41o-F508delCFTR-HRP), doxycycline-inducible
Experiment: Cell Surface Expression-Horse Radish Peroxidase (CSE-HRP) assay, test compound without co-corrector
Assay type: cell-based
Details: test compound without co-corrector
Experimental: Cell Surface Expression-Horse Radish Peroxidase (CSE-HRP) Assay […] The % activity measured at each of the 8 test concentrations of the test compound added either without or with a co-corrector (2 μM of 3-[(2R,4R)-4-({[1-(2,2-difluoro-1,3-benzodioxol-5-yl)cyclopropyl]carbonyl}amino)-7-methoxy-3,4-dihydro-2H-chromen-2-yl]benzoic acid) was normalized to the on-plate positive control using the following formulae: […]
pEC50: −log10 of the molar value.
endpoint.name: pEC50

Reference set (7 entries):
compound	pEC50
COc1ccc(-c2ccc(C)cc2)c2c1CCCC2C(=O)NS(=O)(=O)c1cccc2ccccc12 (centres unmarked) [Example I-57]	> 5.52
COc1cccc2c1CCC2C(=O)NS(=O)(=O)c1ccccc1C(=O)OC(C)C (centres unmarked) [III-56]	5.00 to 5.52
COc1cccc2c1CCC2C(=O)NS(=O)(=O)c1cc(-c2nc3c([nH]2)c(=O)n(C)c(=O)n3C)ccc1Cl (centres unmarked) [III-58]	5.00 to 5.52
COc1ccc(Br)c2c1CCCC2C(=O)NS(=O)(=O)c1cccc2ncccc12 (centres unmarked) [Example I-56]	> 5.52
COc1ccc(Br)c2c1C(C(=O)NS(=O)(=O)c1cccc3cccnc13)CC2 (centres unmarked) [II-116]	5.00 to 5.52
COc1ccc(Br)c2c1C(C(=O)NS(=O)(=O)c1cccc3ccccc13)C2 (centres unmarked) [Example I-79]	5.00 to 5.52
Cc1ccccc1S(=O)(=O)NC(=O)C1CCc2c(-c3ccccc3)cccc21 (centres unmarked) [Example II-36]	5.00 to 5.52

Measured pEC50, COc1cccc2c1CC(C(=O)NS(=O)(=O)c1ccccc1C)CC2 (centres unmarked) [III-7] : ≤ 5.00

* * *

Target: F508delCFTR (Homo sapiens, UniProt P13569, DEL508-508)
Construct: expressed in transfected cells; host or cells: CFBE41o- human lung-derived epithelial cells (CFBE41o-F508delCFTR-HRP), doxycycline-inducible
Assay: Cell Surface Expression-Horse Radish Peroxidase (CSE-HRP) assay, test compound with co-corrector
Format: cell-based
Conditions: with 2 μM co-corrector
pEC50: −log10 of the molar value.
endpoint.name: pEC50

compound	pEC50
COc1ccc(Br)c2c1[C@H](C(=O)NS(=O)(=O)c1cccc3ncccc13)CC2	> 5.52
COc1ccc(OC)c2c1CC[C@@H]2C(=O)NS(=O)(=O)c1cccc2ncccc12	5.00 to 5.52
COc1ccc(-c2ccc(C3CC3)nc2)c2c1CCCC2C(=O)NS(=O)(=O)c1cccc2ccccc12 (stereo not shown)	> 5.52

Next compound, pEC50 to be filled in.
Measured pEC50, Cc1ccccc1S(=O)(=O)NC(=O)C1CCCc2cccc(Cl)c21 (stereo not shown) : 5.00 to 5.52

* * *

Target: F508delCFTR (Homo sapiens, UniProt P13569, DEL508-508)
Construct: expressed in transfected cells; host or cells: CFBE41o- human lung-derived epithelial cells (CFBE41o-F508delCFTR-HRP), doxycycline-inducible
Experiment: Cell Surface Expression-Horse Radish Peroxidase (CSE-HRP) assay, test compound with co-corrector;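 for Maximum % activity (with co-corrector): percent of 2 µM positive control corrector over DMSO; co-corrector is that same compound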
Assay type: cell-based
Details: maximum at any tested concentration, normalized to positive control, with 2 μM co-corrector

compound	Maximum % activity (with co-corrector)
COc1cccc2c1CCC2C(=O)NS(=O)(=O)c1ccccc1C(F)(F)F (stereo not shown) [II-37]	++ (≥150 and <350)
Cc1ccc2c(c1)CCC2(C)C(=O)NS(=O)(=O)c1ccccc1C (stereo not shown) [II-22]	++ (≥150 and <350)
COc1ccc(Cl)c2c1CC[C@H]2C(=O)NS(=O)(=O)c1cccc2ccccc12 (single isomer, unassigned) [Example I-86]	+++ (≥350)
CC1(C(=O)NS(=O)(=O)c2cccc3ccccc23)CCc2cccc(C3CCC3)c21 (stereo not shown) [Example I-83]	+++ (≥350)

* * *

Molecular target: F508delCFTR (Homo sapiens, UniProt P13569, DEL508-508)
Construct: expressed in transfected cells; host or cells: CFBE41o- human lung-derived epithelial cells (CFBE41o-F508delCFTR-HRP), doxycycline-inducible
Experiment: Cell Surface Expression-Horse Radish Peroxidase (CSE-HRP) assay, test compound with co-corrector;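 for Maximum % activity (with co-corrector): percent of 2 µM positive control corrector over DMSO; co-corrector is that same compound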
Format: cell-based
Conditions: maximum at any tested concentration, normalized to on-plate positive control, with 2 μM co-corrector
Experimental: Cell Surface Expression-Horse Radish Peroxidase (CSE-HRP) Assay […] The % activity measured at each of the 8 test concentrations of the test compound added either without or with a co-corrector (2 μM of 3-[(2R,4R)-4-({[1-(2,2-difluoro-1,3-benzodioxol-5-yl)cyclopropyl]carbonyl}amino)-7-methoxy-3,4-dihydro-2H-chromen-2-yl]benzoic acid) was normalized to the on-plate positive control using the following formulae: […]
endpoint.name: Maximum % activity (with co-corrector)

Reference set (6 entries):
compound	measured.value
COc1ccc(Br)c2c1C(C(=O)NS(=O)(=O)c1cccnc1OC)CC2 (stereo not drawn)	++ (≥150 and <350)
CCC1(C(=O)NS(=O)(=O)c2cccc(F)c2C#N)CCc2c(Cl)cccc21 (stereo not drawn)	+ (<150)
COc1ccc(-c2cccc(OC(F)(F)F)c2)c2c1CCCC2C(=O)NS(=O)(=O)c1cccc2ccccc12 (stereo not drawn)	+++ (≥350)
Cc1cc(-c2cccc3c2CCC3C(=O)NS(=O)(=O)c2ccccc2C)ccn1 (stereo not drawn)	+ (<150)
COc1ccc(-c2cncnc2)c2c1C(C(=O)NS(=O)(=O)c1cccc3ncccc13)CC2 (stereo not drawn)	+++ (≥350)
CCC1(C(=O)NS(=O)(=O)c2ccc(C)cc2)CCc2c(Cl)cccc21 (stereo not drawn)	++ (≥150 and <350)

Measured Maximum % activity (with co-corrector), CCC1(C(=O)NS(=O)(=O)c2ccc(Cl)cc2)CCc2c(Cl)cccc21 (stereo not drawn) : ++ (≥150 and <350)

Measured Maximum % activity (with co-corrector), COc1ccc(N2CCCC2)c2c1CCCC2C(=O)NS(=O)(=O)c1cccc2ccccc12 (stereo not drawn) : + (<150)

Measured Maximum % activity (with co-corrector), CCC1(C(=O)NS(=O)(=O)c2c(C)nn(C)c2Cl)CCc2c(Cl)cccc21 (stereo not drawn) : + (<150)
